# System: HCT-116
# Assay Explanation: Cytotoxicity against human HCT116 cells after 72 hrs by WST-8 assay
# Assay type: functional, cell-based
# Test Conditions: HCT-116, 72 h
IC50 values by entry

| Smiles Repr | IC50 |
| --- | --- |
| CCN(CC)CCCOc1cc2ncnc(Nc3nc4ccc(C(=O)Nc5c(C)cccc5C)cc4s3)c2cc1OC | > 100 µM |
| COc1cc2c(Nc3nc4ccc(C(=O)Nc5c(C)cccc5Cl)cc4s3)ncnc2cc1OCCCN1CCOCC1 | > 100 µM |
| COc1cc2c(Nc3nc4ccc(C(=O)Nc5c(C)cccc5C)cc4s3)ncnc2cc1OCCCN1CCOCC1 | > 100 µM |

====

# System: NCI-H661
# Assay Explanation: Cytotoxicity against human NCI-H661 cells after 72 hrs by WST-8 assay
# Assay type: functional, cell-based
# Test Conditions: NCI-H661, 72 h
# key: entry, value: IC50

| Compound | Unit Descriptor | Bound Type | IC50 |
| --- | --- | --- | --- |
| COc1cc2c(Nc3nc4ccc(C(=O)Nc5c(C)cccc5Cl)cc4s3)ncnc2cc1OCCCN1CCOCC1 | µM | > | 100 |
| CCN(CC)CCCOc1cc2ncnc(Nc3nc4ccc(C(=O)Nc5c(C)cc(C)cc5C)cc4s3)c2cc1OC | µM | = | 7.3 |
| COc1cc2c(Nc3nc4ccc(C(=O)Nc5c(C)cc(C)cc5C)cc4s3)ncnc2cc1OCCCN1CCCC1 | µM | = | 9.6 |
| COc1cc2c(Nc3nc4ccc(C(=O)Nc5c(C)cccc5Cl)cc4s3)ncnc2cc1OCCCN1CCCCC1C (stereo not given) | µM | = | 5.3 |
| COc1cc2c(Nc3nc4ccc(C(=O)Nc5c(C)cccc5C)cc4s3)ncnc2cc1OCCCN1CCCCC1 | µM | > | 100 |

====

# Tested on: HCT-116
# Assay Explanation: Cytotoxicity against human HCT116 cells after 72 hrs by WST-8 assay
# Format: functional, cell-based
# Test Conditions: HCT-116, 72 h

| Compound | IC50, µM |
| --- | --- |
| CCN(CC)CCCOc1cc2ncnc(Nc3nc4ccc(C(=O)Nc5c(C)cccc5Cl)cc4s3)c2cc1OC | 13.2 |
| COc1cc2c(Nc3nc4ccc(C(=O)Nc5c(C)cccc5Cl)cc4s3)ncnc2cc1OCCCN1CCCCC1C (stereo not drawn) | 7.2 |
| CCN(CC)CCCOc1cc2ncnc(Nc3nc4ccc(C(=O)Nc5c(C)cc(C)cc5C)cc4s3)c2cc1OC | 7.5 |

FYI, the data here is from ChEMBL document CHEMBL2375301.
